measurement_target: UniProtKB P22607
Sequence (P22607 23-806): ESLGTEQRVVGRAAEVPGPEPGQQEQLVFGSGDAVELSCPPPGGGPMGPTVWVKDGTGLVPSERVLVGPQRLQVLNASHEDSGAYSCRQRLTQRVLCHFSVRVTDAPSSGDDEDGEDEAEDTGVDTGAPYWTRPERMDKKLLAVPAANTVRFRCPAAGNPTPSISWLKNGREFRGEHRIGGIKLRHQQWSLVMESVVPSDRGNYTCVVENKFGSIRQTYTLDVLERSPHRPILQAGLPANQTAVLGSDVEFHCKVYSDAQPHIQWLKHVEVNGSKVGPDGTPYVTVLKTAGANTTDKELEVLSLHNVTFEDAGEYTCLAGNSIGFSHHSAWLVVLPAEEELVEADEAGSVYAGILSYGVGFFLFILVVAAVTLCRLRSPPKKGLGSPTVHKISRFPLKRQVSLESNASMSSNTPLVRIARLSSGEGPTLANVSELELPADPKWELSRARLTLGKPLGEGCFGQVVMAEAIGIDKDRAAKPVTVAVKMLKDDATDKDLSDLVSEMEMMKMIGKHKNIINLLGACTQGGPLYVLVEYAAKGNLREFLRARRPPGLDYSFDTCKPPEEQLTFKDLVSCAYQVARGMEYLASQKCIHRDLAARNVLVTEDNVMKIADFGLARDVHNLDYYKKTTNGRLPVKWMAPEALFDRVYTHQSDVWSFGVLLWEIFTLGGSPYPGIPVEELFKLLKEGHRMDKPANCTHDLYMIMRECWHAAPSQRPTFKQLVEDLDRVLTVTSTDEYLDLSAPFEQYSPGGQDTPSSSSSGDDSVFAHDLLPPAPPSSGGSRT
assay_readout: IC50

Example results:
Inquiry: Check the records and state IC50 for CC(C)C1C(=O)N(C)CCN1c1ccc2[nH]nc(-c3ccc(N4CCN(C)CC4)c(F)c3)c2n1 (stereo not shown)
Reply text: < 0.01 µM

Inquiry: Check the records and state IC50 for CN1CCN(c2ccc3[nH]nc(-c4cnn(C)c4)c3n2)C(Cc2ccncc2)C1=O (stereo not shown)
Reply text: ≥ 0.2 µM

Inquiry: Check the records and state IC50 for CCC1(CC)C(=O)N(C)CCN1c1ccc2[nH]nc(-c3cnn(C)c3)c2n1
Reply text: 0.01 to 0.03 µM

Batch lookup, IC50 per entry.
1. Cc1cc2[nH]nc(-c3cnn(C)c3)c2nc1N1CCN(C)C(=O)C1C (stereo not shown)
2. Cn1cc(-c2n[nH]c3ccc(N4CCn5cnc(C(F)(F)F)c5C4)nc23)cn1
3. CN1CC2CCC(C1=O)N2c1ccc2[nH]nc(-c3cnn(C)c3)c2n1 (stereo not shown)
4. CN1CCN(c2ccc3[nH]nc(-c4cnn(C)c4)c3n2)C(C2CC2)C1=O (stereo not shown)

Reply text:
0.03 to 0.2 µM
< 0.01 µM
< 0.01 µM
< 0.01 µM
